The reported numbers originate from the supplement of paper PMC4862054.

test system: HCC1143; assay: drug sensitivity score (DSS), CellTiter-Glo (DSS (AUC-based score)); higher = stronger drug effect (viability inhibition or cytotoxicity); extreme values may be limits of the assay; details: incubation time: 72 h
# key: entry, value: drug sensitivity score

compound: O=NN(CCCl)C(=O)NCCCl
tested system: HCC1143
drug sensitivity score: 0
--
compound: C[C@]1(O)C[C@@H](c2nc(-c3ccc4ccc(-c5ccccc5)nc4c3)c3c(N)nccn32)C1
tested system: HCC1143
drug sensitivity score: 1.82
--
compound: CC[C@@H]1C(=O)OC[C@@H]1Cc1cncn1C
tested system: HCC1143
drug sensitivity score: 0
--
compound: CC1(C)CCC(CN2CCN(c3ccc(C(=O)NS(=O)(=O)c4ccc(NCC5CCOCC5)c([N+](=O)[O-])c4)c(Oc4cnc5[nH]ccc5c4)c3)CC2)=C(c2ccc(Cl)cc2)C1
tested system: HCC1143
drug sensitivity score: 0
--
compound: CC1(C)CNc2cc(NC(=O)c3cccnc3NCc3ccncc3)ccc21
tested system: HCC1143
drug sensitivity score: 0
--
compound: CC(=O)N(O)CCCCCNC(=O)CCC(=O)N(O)CCCCCNC(=O)CCC(=O)N(O)CCCCCN
tested system: HCC1143
drug sensitivity score: 3.11
--
compound: O=C1CN2Cc3c(ccc(Cl)c3Cl)N=C2N1 [Anagrelide]
tested system: HCC1143
drug sensitivity score: 0

----------
test system: MFM-223; assay: drug sensitivity score (DSS), CellTox Green (DSS (AUC-based score)); higher = stronger drug effect (viability inhibition or cytotoxicity); extreme values may be limits of the assay; conditions: incubation time: 72 h

record smiles: C[C@]1(O)C[C@@H](c2nc(-c3ccc4ccc(-c5ccccc5)nc4c3)c3c(N)nccn32)C1
drug sensitivity score: 0
//
record smiles: CC(C)(C)c1cnc(CSc2cnc(NC(=O)C3CCNCC3)s2)o1
drug sensitivity score: 6.31
//
record smiles: CC1=C2C[C@H]3[C@@H](CC=C4C[C@@H](O)CC[C@@]43C)[C@@H]2CC[C@]12O[C@@H]1C[C@H](C)CN[C@H]1[C@H]2C
drug sensitivity score: 0
//
record smiles: Nc1ncn([C@@H]2O[C@H](CO)[C@@H](O)[C@H]2O)c(=O)n1
drug sensitivity score: 0

----------
test system: CAL-120; test: normalised response (% of control), CellTiter-Glo; higher = more viable cells (100 = DMSO, 0 = benzethonium chloride kill control); conditions: incubation time: 72 h

compound: CC(=O)N(O)CCCCCNC(=O)CCC(=O)N(O)CCCCCNC(=O)CCC(=O)N(O)CCCCCN [Deferoxamine] (10000 nM)
normalised response [%]: 87.2
--
compound: O=C1CN2Cc3c(ccc(Cl)c3Cl)N=C2N1 [Anagrelide] (10000 nM)
normalised response [%]: 96.5
--
compound: C[C@]12CC[C@@H]3c4ccc(OC(=O)N(CCCl)CCCl)cc4CC[C@H]3[C@@H]1CC[C@@H]2O [Estramustine] (10000 nM)
normalised response [%]: 103
--
compound: CC(C)(C)c1cnc(CSc2cnc(NC(=O)C3CCNCC3)s2)o1 [SNS-032] (10000 nM)
normalised response [%]: 43.3
--
compound: CC1=C2C[C@H]3[C@@H](CC=C4C[C@@H](O)CC[C@@]43C)[C@@H]2CC[C@]12O[C@@H]1C[C@H](C)CN[C@H]1[C@H]2C [Cyclopamine] (10000 nM)
normalised response [%]: 103
--
compound: COc1cc(F)c(F)c(Nc2ccc(I)cc2F)c1NS(=O)(=O)C1(C[C@H](O)CO)CC1 [Refametinib] (10000 nM)
normalised response [%]: 55.7
